Quick list: PI(TD50/ED50 in MES) per entry.
System: motor abilities on the Rotarod
Assay: Neurotoxicity (Rotarod)
Type: in vivo
Settings: protective index, mice

[
  {
    "molecule": "C[C@H](OC(N)=O)[C@@H](O)c1c(Cl)cccc1Cl",
    "PI(TD50/ED50 in MES)": 5.1
  },
  {
    "molecule": "C[C@H](OC(N)=O)[C@H](O)c1ccccc1Cl",
    "PI(TD50/ED50 in MES)": 3.3
  },
  {
    "molecule": "C[C@@H](OC(N)=O)[C@H](O)c1ccccc1Cl",
    "PI(TD50/ED50 in MES)": 7.3
  },
  {
    "molecule": "CC(OC(N)=O)C(O)c1ccccc1Cl (racemic)",
    "PI(TD50/ED50 in MES)": 12.0
  }
]

Data provenance is patent US9872847B2.
